endpoint: melting point

>  <molecule>
Cc1cc2c(-c3ccccc3)c(C(=O)NCc3cc(C(F)(F)F)cc(C(F)(F)F)c3)n(CC(N)=O)c(=O)c2cc1C

>  <melting point>
235 to 237 °C

$$$$
>  <molecule>
CCCCC(CC)C(=O)Nc1ccc2cnn(Cc3ccc(C(=O)OC)cc3OC)c2c1 (stereo not drawn)

>  <melting point>
136 °C

$$$$
>  <molecule>
Cc1cc(C(=O)N2Cc3cccn3Cc3ccccc32)ccc1N

>  <melting point>
232 to 234 °C

$$$$
>  <molecule>
O=C(O)c1cc(Cn2cc(C3c4ccccc4C=Cc4ccccc43)c(=S)[nH]c2=O)ccc1O

>  <melting point>
> 240 °C

$$$$
>  <molecule>
CCOC(=O)c1ccccc1-c1ccc2nc[nH]c(=O)c2c1

>  <melting point>
151 to 158 °C

$$$$

Please report the recorded melting point for CCOC(=O)c1cc(C(C)=O)c(=O)[nH]c1C(=O)OCC .
101 to 110 °C

What measured melting point goes with CNC(=O)Nc1cc(C(C)(C)COC)on1 ?
65 to 67 °C

Form field: reported melting point of Cn1c(COc2ccc(CC3SC(=O)NC3=O)cc2)nc2ccc(Sc3ccccc3)nc21 (stereo not drawn)
166 to 168 °C
